testedOn: D(3) dopamine receptor (Homo sapiens)
assayDetails: HTS Assay for Allosteric Antagonists of the Human D2 Dopamine Receptor: SAR in D3 Beta Arrestin Assay
conditionInfo: DiscoveRx PathHunter D3 beta-arrestin, luminescence, 90 min; series mostly up to 57.1 µM
Inconclusive results are not listed. Activity calls are given as the source filed them. The call rests on the fitted dose curve; in most records, active means well fitted inhibition curve with a large enough effect; inconclusive means small, poorly fitted or top-dose-only effect; inactive means flat fitted curve, though single readings scatter.
Outcome codes: true (1) (active), false (0) (inactive)

# molSmiles, label
data = [
    ("OC1(c2ccc(Cl)cc2)CCN(Cc2c[nH]c3ccccc23)CC1", "true (1)"),
    ("CN1C(=O)c2ccccc2[S@](=O)c2ccc(C(=O)NCCc3cccs3)cc21", "true (1)"),
    ("CCN1C(=O)c2ccccc2[S@](=O)c2ccc(C(=O)N[C@H](C)c3ccc(Br)cc3)cc21", "true (1)"),
    ("CCN1C(=O)c2ccccc2[S@](=O)c2ccc(C(=O)NCc3ccc(C#N)cc3)cc21", "true (1)"),
    ("CN1C(=O)c2ccccc2[S@](=O)c2ccc(C(=O)NCc3ccc(Br)cc3)cc21", "true (1)"),
    ("CN1C(=O)c2ccccc2[S@@](=O)c2ccc(C(=O)NCCc3cccs3)cc21", "false (0)"),
    ("CCN1C(=O)c2ccccc2[S@](=O)c2ccc(C(=O)NCc3ccc(F)cc3)cc21", "true (1)"),
    ("CCN1C(=O)c2ccccc2[S@](=O)c2ccc(C(=O)NCc3ccc(OC)cc3)cc21", "true (1)"),
]
